Tested on: NCI-H23 lung
Test Description: NCI tumour cell line growth inhibition, 48 h
Listing: TGI of selected compounds
Measurement Kind: TGI

> print(dat)
                                    compound    result
 1  CCN(CC)CC(O)CNc1c2ccc(Cl)cc2nc2ccc(OC)cc12 (stereo not given)   2.53 µM
 2  COc1ccc(C2SC(N)=Nc3c2c(C)nn3C(=O)Cc2ccccc2)cc1 (stereo not given)  > 100 µM
 3        CN(C)CCONC(=O)C12CC3CC(CC(C3)C1)C2  > 100 µM
 4                CCOC(CNc1nn2c(C)nnc2s1)OCC  > 100 µM
 5  COC(=O)C1[C@@H](C(=O)OC)C(=O)O[C@H]1c1cc(OC)c(OC)c(OC)c1 (stereo not given in full)  > 100 µM
 6  [2H]c1nc(C)nc([2H])c1-c1cc(NC[C@@H](C)c2cccc3c(C(=O)NC)ccnc23)ncn1  > 100 µM
 7  O=C1C(c2ccc([N+](=O)[O-])cc2)=C(Cl)C(=O)c2c(O)cccc21   36.6 µM
 8      O=C(NC(O)(C(F)(F)F)C(F)(F)F)c1ccccc1  > 100 µM
 9  CC1=C(C(=O)CC(=O)C(=O)Nc2ccc(Cl)cc2C)Sc2ccccc2N1  > 100 µM
10  C=CCCCCNC(=O)C[C@@H]1C2=C(CC[C@H]1O[Si](C)(C)C(C)(C)C)N1C(=O)CCC/C=C\C1C2 (stereo not given in full)   27.7 µM

###

Test system: SK-MEL-28 melanoma
Test Description: NCI tumour cell line growth inhibition, 48 h
Where a SMILES comes first, the peptide text is derived from it.
Listing: TGI of selected compounds

Compound	Assay System	TGI
N#CNC(=NCCO)NCCO	SK-MEL-28 melanoma	> 100 µM
CN(C)CCONC(=O)C12CC3CC(CC(C3)C1)C2	SK-MEL-28 melanoma	> 100 µM
CCN=c1nc2sc3c(c2c(NC(=S)NCC)s1)CCN(N1CCc2c(sc4nc(=NCC)sc(NC(=S)NCC)c24)C1)C3	SK-MEL-28 melanoma	> 100 µM
CCOC(=O)[C@H]1Nc2ccc(Cl)cc2[C@H]2CCC[C@@H]12	SK-MEL-28 melanoma	> 100 µM
O=C(c1ccccc1)c1ccc2cccc(OC3OC(CO)C(O)C(O)C3O)c2n1 (stereo not given)	SK-MEL-28 melanoma	> 100 µM
Cc1ccc(O)c(C2=CC3=NNC(=O)C3C(c3cccc(Br)c3)C2)c1 (stereo not given)	SK-MEL-28 melanoma	> 75 µM
C=C=C(Sc1ccccc1)C(C)(C)O	SK-MEL-28 melanoma	> 100 µM
CCC12C=CCN3CCC4(c5cc(C6(C(=O)OC)CCCCCc7c6[nH]c6ccccc76)c(OC)cc5N(C)C4C(O)(C(=O)OC)C1OC(C)=O)C32 (stereo not given)	SK-MEL-28 melanoma	4.35 µM
CSc1nc(NC2OC(COC(C)=O)C(OC(C)=O)C(OC(C)=O)C2OC(C)=O)c(N=CC=Nc2c(NC3OC(COC(C)=O)C(OC(C)=O)C(OC(C)=O)C3OC(C)=O)nc(SC)[nH]c2=O)c(=O)[nH]1 (stereo not given)	SK-MEL-28 melanoma	> 100 µM
Cn1ccc2c1SSSSS2	SK-MEL-28 melanoma	47.5 µM
O=C(NC(O)(C(F)(F)F)C(F)(F)F)c1ccccc1	SK-MEL-28 melanoma	> 100 µM
C[C@]12CCC(N3CCCC3)CC1=CC[C@@H]1[C@@H]2CC[C@]2(C)C(O)[C@H](n3ccnc3)C[C@@H]12 (stereo not given in full)	SK-MEL-28 melanoma	68.5 µM
S=C(S)N1CCCCC1	SK-MEL-28 melanoma	> 406 µM
Nc1ccccc1Nc1ccccc1C(=O)[O-].Nc1ccccc1Nc1ccccc1C(=O)[O-].[Ni+2]	SK-MEL-28 melanoma	> 100 µM
N#CNCC(COCc1ccccc1)c1ccccc1 (stereo not given)	SK-MEL-28 melanoma	> 100 µM
O=C(O)c1ccc(NCc2nc3cc(Cl)c(Cl)cc3[nH]2)cc1	SK-MEL-28 melanoma	> 100 µM
COc1cc(C2CC(c3cccc(Nc4ccncc4)c3)=NN2c2ccccc2)cc(OC)c1OC (stereo not given)	SK-MEL-28 melanoma	3.3 µM
CCOC(=O)/C(C#N)=C\C=C(\Sc1nc2ccccc2s1)c1ccc(Cl)cc1	SK-MEL-28 melanoma	69.5 µM
CCC(C)C(NC(=O)C(NC(=O)C(CC(N)=O)NC(=O)CN)C(C)O)C(=O)NC(C(=O)NC(C)C(=O)NC(C(=O)NC(CCC(=O)O)C(=O)NC(CC(C)C)C(=O)NC(CC(=O)O)C(=O)NC(C(=O)NC(Cc1ccc(O)cc1)C(=O)N1CCCC1C(=O)O)C(C)O)C(C)C)C(C)C (stereo not given) (H-GNTIVAVELDTYP-OH; configuration not given here)	SK-MEL-28 melanoma	> 50 µM
CCOC(=O)[C@@H]1[C@@H]2NC(=O)N[C@@]1(C)Oc1ccccc12	SK-MEL-28 melanoma	> 100 µM

###

Listing: TGI of selected molecules
Test system: KM12 colon
Test Description: NCI tumour cell line growth inhibition, 48 h
Measurement Kind: TGI

> print(dat)
                                    molecule    result
 1  COc1ccc(-c2nc(Sc3c([N+](=O)[O-])ncn3C)n[nH]2)cc1   4.31 µM
 2  CCCCCCCCCCCC(=O)NCc1ccc(OC(=O)CCCCCCCCCCC)c(OC)c1  > 100 µM
 3  COc1cc2c(cc1OCCCN1CCN(C)CC1)N=C[C@@H]1CCCN1C2=O   4.95 µM
 4                ONCCCn1cnc2c(NC3CC3)ncnc21  > 100 µM
 5      Cn1cnc([N+](=O)[O-])c1Sc1nc2ccccc2s1   29.3 µM
 6  O=C(NC(Cc1ccc(I)cc1)C(=O)O)c1cccc(Br)c1 (stereo not given)  > 100 µM
 7  COC(=O)C(=O)C(C(=O)C(=O)Nc1ccc(OC)cc1[N+](=O)[O-])c1nc2ccc([N+](=O)[O-])cc2[nH]c1=O (stereo not given)  > 100 µM
 8  CCc1ccc(C(=O)/C=C/C23c4ccccc4C(c4ccccc42)C2C(=O)NC(=O)C23)cc1 (stereo not given)   3.77 µM
 9  N#CC(C/C=C/c1ccccc1)NNC(=O)c1c(Cl)c(Cl)c(Cl)c(Cl)c1-c1nc2ccc(C(=O)c3ccccc3)cc2[nH]1 (stereo not given)  > 100 µM
10        CN(C)CCONC(=O)C12CC3CC(CC(C3)C1)C2  > 100 µM

###

System: TK-10 renal
Test Description: NCI tumour cell line growth inhibition, 48 h
Where a SMILES comes first, the peptide text is derived from it.

Molecule	TGI
CCCCCCCCCCCCCC(=O)NCO	> 100 µM
COc1ccc(/C=C2\CCC(CN3CCOCC3)C2=O)cc1 (centres undefined)	9.64 µM
CC1CC2(OC2C)C(=O)OC2CCN(C)C/C=C(/COC(=O)C1(C)O)C2=O (centres undefined)	> 100 µM
CCC1=CCN(c2ccc(C)cc2)OC1c1ccc(OC)cc1 (centres undefined)	> 100 µM
COc1cc2cnc3c(c2c(OC)c1OC)Cc1cc2c(cc1-3)OCO2	2.9 µM
Cc1cc(=O)[nH]c(S(=O)(=O)NC(=S)Nc2ccc(Cl)cc2)n1	> 100 µM
O=c1c2cc(I)ccc2nc(Sc2ccc([N+](=O)[O-])cc2[N+](=O)[O-])n1Cc1ccccc1	20.7 µM
Nc1nc2cc(O)ccc2n2cc3c(F)cccc3c12	> 100 µM
CCOC(=O)N1CCN(P(=O)(Nc2ccc3nc(NC(=O)OC)[nH]c3c2)Oc2ccccc2)CC1 (centres undefined)	> 100 µM
OC(CC(CC(O)(C(F)(F)F)C(F)(F)F)=NN=C(CC(O)(C(F)(F)F)C(F)(F)F)CC(O)(C(F)(F)F)C(F)(F)F)(C(F)(F)F)C(F)(F)F	> 10 µM
COc1cc(-c2nn(-c3cccc(NC(=O)Nc4cccc(C(F)(F)F)c4)c3)cc2-c2ccncc2)ccc1Cl	9.26 µM
CCNc1cnc2c(n1)c(=O)n(C)c(=O)n2C	> 100 µM
CC(=O)OC1C[C@@H](C)C2(CC(c3ccoc3)OC2=O)C2CCC(O)C3(CO3)C12CO (some centres undefined)	> 100 µM
S=C(S)N1CCCCC1	> 406 µM
COC(=O)C(=O)C(C(=O)C(=O)Nc1ccc(OC)cc1[N+](=O)[O-])c1nc2ccc([N+](=O)[O-])cc2[nH]c1=O (centres undefined)	> 100 µM
CCc1n[nH]c(=O)n1O	> 100 µM
O=C1OC2C=CCC1C2 (centres undefined)	> 100 µM
CC(=O)Oc1cc(C(C)C)c(OCCN(C)C)cc1C	> 100 µM
O=C1C(c2ccc([N+](=O)[O-])cc2)=C(Cl)C(=O)c2c(O)cccc21	34.7 µM
CCC(C)C(NC(=O)C(NC(=O)C(CC(N)=O)NC(=O)CN)C(C)O)C(=O)NC(C(=O)NC(C)C(=O)NC(C(=O)NC(CCC(=O)O)C(=O)NC(CC(C)C)C(=O)NC(CC(=O)O)C(=O)NC(C(=O)NC(Cc1ccc(O)cc1)C(=O)N1CCCC1C(=O)O)C(C)O)C(C)C)C(C)C (centres undefined) (H-GNTIVAVELDTYP-OH; configuration not given here)	> 50 µM
CCSc1n/c(=C\c2ccc(N(C)C)cc2)c2nnnn12	> 100 µM
COc1cc2c3c(n(CCCNC4=NCCS4)c(=O)c2cc1OC)-c1cc2c(cc1C3=O)OCO2	10.6 µM
S=c1[nH]nc(-c2ccccc2)n1/N=C\c1ccc(-c2ccc(Cl)cc2)o1	> 100 µM
C=C(C(=O)OC)N1C(=O)CC(C)C1=O (centres undefined)	17.7 µM
COc1ccc(C(NS(=O)(=O)c2ccc(C)cc2)c2c(C(CBr)OC)c3ccccc3n2S(=O)(=O)c2ccccc2)cc1OC (centres undefined)	> 100 µM
CCCN1C/C(=C\c2ccc(O)c(OC)c2)C(=O)/C(=C/c2ccc(O)c(OC)c2)C1	> 100 µM
CC(=O)c1c(Nc2cccc(F)c2)[nH]c2c(Cl)cc(Cl)c(Cl)c2c1=O	> 100 µM
O=C(OCC1OC(n2cc(C(F)(F)F)c(=O)[nH]c2=O)CC1OC(=O)c1ccc([N+](=O)[O-])cc1)c1ccc([N+](=O)[O-])cc1 (centres undefined)	> 100 µM
O=c1c2ccccc2n2c(-c3ccc(O)cc3)nnc2n1-c1ccccc1	43.5 µM
